Below, each entry is listed alongside its reported concentration at 0.5 h.
experiment: In vivo mouse DMPK study, single 1 mg/kg subcutaneous dose; details: male, CD1, mouse, plasma, sc, 1 mg/kg, 0.50 h; 1 mg/kg s.c.; n=3 mice; read-out: Plasma concentration, Mean

{"columns": ["STRUCTURE_AS_SMILES", "concentration at 0.5 h [ng/mL]"],
 "data": [
  ["Cc1cccc(NC(=O)CN2C(=O)CC(c3ccccc3)=Nc3ccccc32)c1C", 23.3],
  ["Cc1ccc(-c2nnc(SCC(=O)Nc3nccs3)[nH]2)cc1", 66.9]
]}

The origin of these recorded values is paper PMC7176092.
